Hey, just so you know, these numbers are from PubChem BioAssay.

# experimentNotes: viability loss in pontine glioma line – cell-based, SU-DIPG-XVII, MIPE5.0, CellTiter-Glo, qHTS, dose response (AID 1347060);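 as to AC50: cells exposed to compound for 48 hours before viability readout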
# experimentalConditions: CellTiter-Glo ATP luminescence
Inconclusive results are not listed. Active and inactive are the calls of the source. The limit is not given here; nearly all actives have AC50 up to about 26 µM.
Outcome codes: active, inactive

compound	answerLabel
NC(=O)c1cccc2c(NC(CN3CCC3)c3ccc(Cl)c(C(F)(F)F)c3)ncnc12 (stereo unspecified)	active
Cc1cc(Nc2ncnc3ccc(-c4ccc(CNCCS(C)(=O)=O)o4)cc23)ccc1Oc1ccn2ncnc2c1	active
Cc1ncsc1-c1ccc([C@H](C)NC(=O)[C@@H]2C[C@@H](O)CN2C(=O)[C@@H](NC(=O)COCCCOCCNC(=O)C[C@@H]2N=C(c3ccc(Cl)cc3)c3c(sc(C)c3C)-n3c(C)nnc32)C(C)(C)C)cc1	active
COc1ccc(C(=O)C2CCN(CC(=O)N(Cc3nc4c(c(=O)[nH]3)COCC4)CC3CC3)CC2)cc1	inactive
Cn1cc(-c2ccc3c(c2)CCN3C(=O)Cc2cccc(C(F)(F)F)c2)c2c(N)ncnc21	inactive
C[C@@H]1COC(Nc2ccc3ncnc(Nc4ccc(OCc5nccs5)c(Cl)c4)c3c2)=N1	active
Nc1ncnc2c1c(-c1cnc3[nH]ccc3c1)nn2C1CCCC1	active
CNC(=O)CCc1cc(-c2ccc(-c3ccc(C(F)(F)F)cc3)cc2)n(-c2ccc(N3CCNCC3)cc2)n1	active
Nc1cccc2c1C(=O)N(C1CCC(=O)NC1=O)C2=O (stereo unspecified)	inactive
COc1cc(N2CCC(N3CCN(C)CC3)CC2)ccc1Nc1ncc(Cl)c(Nc2ccccc2P(C)(C)=O)n1	active
O=C(O)c1ccc(O)c2ncc(N3CCOCC3)cc12	inactive
O=C(O)c1ccc2c(c1)nc(Nc1cccc(Cl)c1)c1ccncc12	active
C/C=C1\NC(=O)[C@H]2CSSCC/C=C\[C@H](CC(=O)N[C@H](C(C)C)C(=O)N2)OC(=O)[C@H](C(C)C)NC1=O	active
NC1(C(=O)N[C@@H](CCO)c2ccc(Cl)cc2)CCN(c2ncnc3[nH]ccc23)CC1	active
COc1ncc(Nc2ncc(C(C)N3CCN(S(C)(=O)=O)CC3)cc2-c2nc(C)nc(N)n2)cc1F (stereo unspecified)	active
CC(C)[C@H]1C(=O)N[C@@H](CCCN=C(N)N)C(=O)NCC(=O)N[C@@H](CC(=O)O)C(=O)N[C@H](Cc2ccccc2)C(=O)N1C	inactive
